- Tested on: PANC-1 tumor model
- method-notes: Tissue distribution in nude mice (PANC-1 tumor model)
- Format: in vivo, BALB/c nu/nu mice
- run-conditions: nude mice (PANC-1 tumor model), 1 h after injection
Below, each entry is listed with its recorded Tissue distribution, Heart.
experimental-endpoint: Tissue distribution, Heart (%ID/g)

CCCOc1ccc(C[C@](C)(N)C(=O)O)cc1[211At] [^211At-AAMT-O-Pr-L] | 5.39
COc1ccc(C[C@](C)(N)C(=O)O)cc1[211At] [^211At-AAMT-O-Me-L] | 0.86
CCOc1ccc(C[C@](C)(N)C(=O)O)cc1[211At] [^211At-AAMT-O-Et-L] | 4.41
COc1ccc(C[C@@](C)(N)C(=O)O)cc1[211At] [^211At-AAMT-O-Me-D] | 0.53
